B1: TNXB (parent)
chain: FSEIRETSAKVNWMPPPSRADSFK

variants of: B1; assay: protein stability index of a GFP-peptide fusion (GPS, HEK-293T) (PSI 1-6); higher = more stable; conditions: c terminus: a fixed tail appended;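 further: lentivirally expressed fusions sorted by FACS into six bins by GFP to DsRed ratio, PSI derived from sequencing read proportions per bin multiplied by bin number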
measured_attribute: protein stability index

var: S8R
measured_value: 2.74
//
var: I4W
measured_value: 1.9
//
var: S2T
measured_value: 2.67
//
var: A9V
measured_value: 2.35
//
var: S22V
measured_value: 2.94
//
var: K10T
measured_value: 3.96
//
var: R5Y
measured_value: 3.04
//
var: K24C
measured_value: 2.94
//
var: S8Y
measured_value: 2.95
//
var: N12F
measured_value: 2.96
//
var: P16A
measured_value: 3.05
//
var: S8C
measured_value: 3.95
//
var: S22I
measured_value: 3.38
//
var: P16R
measured_value: 2.87
//
var: S2G
measured_value: 2.97
//
var: D21Q
measured_value: 3.5
//
var: R19G
measured_value: 3.43
//
var: V11G
measured_value: 3.38
//
var: K24A
measured_value: 2.92
//
var: S8F
measured_value: 2.51
//
var: P16K
measured_value: 3.33
//
var: A9W
measured_value: 2.46
//
var: P16H
measured_value: 3.05
//
var: A20T
measured_value: 2.8
//
var: I4Y
measured_value: 2.94
//
var: S18F
measured_value: 2.71
//
var: K10P
measured_value: 3.52
//
var: I4M
measured_value: 3.92
//
var: V11C
measured_value: 3.15
//
var: K10S
measured_value: 3.76
//
var: W13C
measured_value: 4.27
//
var: S22Y
measured_value: 3.32
//
var: F23Y
measured_value: 3.09
//
var: I4H
measured_value: 4.14
//
var: A9C
measured_value: 2.38
//
var: K24T
measured_value: 3.37
//
var: E3K
measured_value: 3.68
//
var: E3F
measured_value: 2.38
//
var: A20L
measured_value: 2.9
//
var: D21S
measured_value: 3.62
//
var: R5P
measured_value: 4.12
//
var: P15Y
measured_value: 2.22
//
var: V11H
measured_value: 3.5
//
var: A9D
measured_value: 3.58
//
var: P17Y
measured_value: 2.67
//
var: K10E
measured_value: 3.76
//
var: K10R
measured_value: 3.67
//
var: W13K
measured_value: 4.55
//
var: W13L
measured_value: 4
//
var: E6N
measured_value: 2.69
//
var: P15T
measured_value: 3.38
//
var: S2A
measured_value: 2.69
//
var: S22D
measured_value: 3.62
//
var: N12D
measured_value: 3.83
//
var: T7Q
measured_value: 3.38
//
var: P16E
measured_value: 3.52
//
var: F23T
measured_value: 4.06
//
var: P17W
measured_value: 2.79
//
var: E6V
measured_value: 2.84
//
var: K24S
measured_value: 3.29
//
var: E6Q
measured_value: 2.02
//
var: K10D
measured_value: 4.01
//
var: A9T
measured_value: 3.46
//
var: R19L
measured_value: 2.65
//
var: S2D
measured_value: 4.12
//
var: D21C
measured_value: 2.79
//
var: W13F
measured_value: 3.57
//
var: P15G
measured_value: 3.29
//
var: S18G
measured_value: 3.51
//
var: K24W
measured_value: 1.69
//
var: S8V
measured_value: 3.1
//
var: R19H
measured_value: 3.15
//
var: P17N
measured_value: 3.35
//
var: P17C
measured_value: 2.81
//
var: P17K
measured_value: 3.43
//
var: F23W
measured_value: 3.32
//
var: I4E
measured_value: 4.3
//
var: E3A
measured_value: 2.4
//
var: A9Y
measured_value: 2.82
//
var: A9S
measured_value: 3.75
//
var: S18N
measured_value: 3.18
//
var: S18E
measured_value: 3.67
//
var: S22C
measured_value: 3.29
//
var: M14W
measured_value: 2.98
//
var: K10F
measured_value: 2.09
//
var: E6H
measured_value: 3.38
//
var: F1V
measured_value: 4.19
//
var: W13V
measured_value: 4.17
//
var: R5D
measured_value: 3.97
//
var: F1Y
measured_value: 3.98
//
var: E3L
measured_value: 2.47

Every entry's value here was drawn from the supplement of paper PMC10567573.
